These entries and their values trace back to PubChem BioAssay (NCI).

# Test system: TK-10 renal
# experiment-notes: NCI tumour cell line growth inhibition, 48 h; in the data active means GI50 below about 0.43 µM; inactive means the rest
Select the correct class. Options are 1 (yes) (active), 0 (no) (inactive) and nothing else.

Query: recorded result category for CN(Cc1cnc2nc(N)nc(N)c2n1)c1c(Cl)cc(C(=O)NC(CCC(=O)O)C(=O)O)cc1Cl (stereo unspecified) in this test
0 (no)

Per the records of this test, what outcome belongs to COc1cc(N)c(Cl)cc1C(=O)N[C@@H]1CCN(CCCOc2ccc(F)cc2)C[C@@H]1OC ?
0 (no)

Hello, I am checking results. What call was entered for O=C1c2ccccc2-c2c1c1ccccc1c(=O)n2CCNCCNCCNCCNCCn1c2c(c3ccccc3c1=O)C(=O)c1ccccc1-2 ?
1 (yes)

Assay result, entry C=C(CN1CCc2ccccc2C1)c1ccc(CCCC(=O)Nc2ccccc2N)cc1 — outcome?
0 (no)

Tell me the recorded outcome of this test for C[C@]12CCC3c4ccc(O)cc4CCC3C1CC[C@@H]2NC(=O)/C=C/c1ccc(O)c(O)c1 (stereo partly specified) .
0 (no)

# fetch the recorded call for COC(=O)N[C@@H](C)CNc1nccc(-c2cn(C(C)C)nc2-c2cc(Cl)cc(NS(C)(=O)=O)c2F)n1 here
0 (no)
